Test system: P. vulgatus RND KO;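 note: active when median AUC fell below 0.1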
experimental-details: growth AUC normalised to DMSO control (median) (fraction of control); higher = less growth inhibition, active = hit call of the paper
protocol-conditions: 20 µM
Structures can show the parent of a compound that is named as a salt.
reported-endpoint: growth AUC normalised to DMSO control
Respond numerically, and do not add a unit to the figure.

CC(C)(C)NCC(O)c1cc(Cl)c(N)c(Cl)c1 (centres undefined) [Clenbuterol hydrochloride] | 0.981
NCC(O)c1ccc(O)cc1 (centres undefined) [Octopamine hydrochloride] | 1.02
c1ccc2c(c1)OCC(C1=NCCN1)O2 (centres undefined) [Idazoxan hydrochloride] | 0.997

Query block: Determine from records and report growth AUC normalised to DMSO control for CC(C)[N+](C)(CCC(C(N)=O)(c1ccccc1)c1ccccc1)C(C)C [Isopropamide iodide]
Result block: 0.995

Query block: Determine from records and report growth AUC normalised to DMSO control for S=C(NC1CCCCC1)N1CCC(c2cnc[nH]2)CC1 [Thioperamide maleate]
Result block: 1

Query block: Determine from records and report growth AUC normalised to DMSO control for CC(=O)[C@H]1CC[C@H]2[C@@H]3CC[C@H]4C[C@H](O)CC[C@]4(C)[C@H]3C(=O)C[C@]12C [Alfaxalone]
Result block: 0.996

Query block: Determine from records and report growth AUC normalised to DMSO control for c1ccc2c(c1)Nc1ccccc1S2 [Phenothiazine]
Result block: 1.01

Query block: Determine from records and report growth AUC normalised to DMSO control for C[C@]12CCC(=O)C=C1CC[C@@H]1[C@@H]2C(=O)C[C@]2(C)C(=O)CC[C@@H]12 [Adrenosterone]
Result block: 0.986

Query block: Determine from records and report growth AUC normalised to DMSO control for CN(C)C(=O)Oc1ccc[n+](C)c1 [Pyridostigmine iodide]
Result block: 1
